Hey, just so you know, these numbers are from patent US9695155B2.

Test system: waterhemp
assay-details: Test C postemergence
Format: in vivo, Amaranthus rudis
measurement-context: 31 g ai/ha, postemergence; visual rating, scale 0 to 100 (0 no effect, 100 complete control), 13 to 15 days
assay-readout: Waterhemp plant response rating

- chemical-string: "FCc1cccc(Oc2ncc(F)cn2)c1-n1cc(I)cn1"
  assay-readout: "Waterhemp plant response rating"
  assay-result: 60
- chemical-string: "N#Cc1cccc(Oc2ncc(Cl)cn2)c1-n1cc(OCC(F)(F)F)cn1"
  assay-readout: "Waterhemp plant response rating"
  assay-result: 85
- chemical-string: "FC(F)c1cnn(-c2c(Cl)cccc2Oc2ncc(Cl)cn2)c1"
  assay-readout: "Waterhemp plant response rating"
  assay-result: 50
- chemical-string: "Fc1cccc(Oc2ncc(Cl)cn2)c1-n1cc(Cl)cn1"
  assay-readout: "Waterhemp plant response rating"
  assay-result: 75
- chemical-string: "N#Cc1cn(-c2c(C#N)cccc2Oc2ncc(Cl)cn2)nn1"
  assay-readout: "Waterhemp plant response rating"
  assay-result: 40
- chemical-string: "N#Cc1cnn(-c2c(C#N)cccc2Oc2ncc(Cl)cn2)c1"
  assay-readout: "Waterhemp plant response rating"
  assay-result: 70
- chemical-string: "Clc1cnc(Oc2ccccc2-n2cc(Br)nn2)nc1"
  assay-readout: "Waterhemp plant response rating"
  assay-result: 60

* * *

pest or weed control at 62 g/ha values for the compounds below.
Tested on: Italian ryegrass
assay-details: Test C postemergence
Assay type: in vivo, Lolium multiflorum
measurement-context: Lolium multiflorum, post-emergence; Postemergence, 62 g ai/ha; scale 0 to 100 (0 no effect, 100 complete control); read-out: Plant response rating, Ryegrass, Italian

- chemical-string: "Clc1cnc(Oc2ccccc2-n2cc(C3CC3)nn2)nc1"
  pest or weed control at 62 g/ha (%): 0
- chemical-string: "Fc1cccc(Oc2ncc(Cl)cn2)c1-n1cc(C(F)F)nn1"
  pest or weed control at 62 g/ha (%): 5
- chemical-string: "N#Cc1cccc(Oc2ncc(Cl)cn2)c1-n1cc(Br)cn1"
  pest or weed control at 62 g/ha (%): 5
- chemical-string: "N#Cc1cccc(Oc2ncc(F)cn2)c1-n1cc(C(F)(F)F)cn1"
  pest or weed control at 62 g/ha (%): 10

* * *

System: wheat
assay-details: Test A postemergence
Type: in vivo, Triticum aestivum
measurement-context: 500 g ai/ha, 0 to 100 scale where 0 is no effect and 100 is complete control
assay-readout: Plant response rating, Wheat

- chemical-string: "FC(F)c1cccc(Oc2ncc(Br)cn2)c1-n1cc(Cl)cn1"
  assay-result: 0
- chemical-string: "COc1cnc(Oc2ccccc2-n2cc(Br)cn2)nc1"
  assay-result: 20
- chemical-string: "N#Cc1cccc(Oc2ncc(C(F)(F)F)cn2)c1-n1cc(Br)cn1"
  assay-result: 60
- chemical-string: "Clc1cnc(Oc2cccc(-c3cnoc3)c2-n2cc(Br)cn2)nc1"
  assay-result: 0
- chemical-string: "CCOC(=O)c1cnn(-c2c(C#N)cccc2Oc2ncc(Br)cn2)c1"
  assay-result: 40
- chemical-string: "CC(C)c1cnn(-c2c(C#N)cccc2Oc2ncc(Cl)cn2)c1"
  assay-result: 70
- chemical-string: "N#Cc1cnc(Oc2ccccc2-n2cccn2)nc1"
  assay-result: 0
- chemical-string: "N#Cc1cnc(Oc2ccccc2-n2cc(Br)cn2)nc1"
  assay-result: 0
- chemical-string: "Clc1cnc(Oc2cccc(Br)c2-n2cc(Cl)cn2)nc1"
  assay-result: 30
- chemical-string: "Cc1cnc(Oc2cccc(C#N)c2-n2cc(C(F)(F)F)cn2)nc1"
  assay-result: 80
- chemical-string: "N#Cc1cccc(Oc2ncc(Cl)cn2)c1-n1cc(OC(F)F)cn1"
  assay-result: 70
- chemical-string: "Clc1cnc(Oc2ccccc2-n2cc(-c3ccccn3)cn2)nc1"
  assay-result: 0
- chemical-string: "N#Cc1cccc(Oc2ncc(Cl)cn2)c1-n1cc(Cl)cn1"
  assay-result: 50
- chemical-string: "N#Cc1cnn(-c2c(C#N)cccc2Oc2ncc(Cl)cn2)c1"
  assay-result: 60
- chemical-string: "CC1(C)OB(c2cnn(-c3c(C#N)cccc3Oc3ncc(Cl)cn3)c2)OC1(C)C"
  assay-result: 20
- chemical-string: "O=Cc1cccc(Oc2ncc(Cl)cn2)c1-n1cc(I)cn1"
  assay-result: 0
- chemical-string: "Fc1cccc(Oc2ncc(Cl)cn2)c1-n1cc(Cl)cn1"
  assay-result: 90
- chemical-string: "C[Si](C)(C)C#Cc1cccc(Oc2ncc(Cl)cn2)c1-n1cc(Br)cn1"
  assay-result: 0
- chemical-string: "FC(F)c1cccc(Oc2ncc(Cl)cn2)c1-n1cc(C(F)(F)F)cn1"
  assay-result: 70
- chemical-string: "Cc1cnc(Oc2cccc(C#N)c2-n2cc(C#N)cn2)nc1"
  assay-result: 50
- chemical-string: "FC(F)(F)c1cnn(-c2c(Br)cccc2Oc2ncc(Cl)cn2)c1"
  assay-result: 40
- chemical-string: "O=Cc1cccc(Oc2ncc(I)cn2)c1-n1cc(Br)cn1"
  assay-result: 0
